Ref: patent US5227398A

system: CCl4 -induced hepatopath rats; test: Hepatopathy improving effects for CCl4-induced hepatopath rats (inhibition to the increase of transaminase in serum); assay type: in vivo; conditions: SD male rats, 100 mg/kg oral, 30 min before CCl4 (diluted fourfold with olive oil, peritoneally, 4 mg/kg); blood after 24 hours; Control 1 (no CCl4) 89, Control 2 (CCl4 alone) 7719
Lab note: anything with Serum GOT at or over 600 U/1 counts as Criterion met; the rest go in Criterion not met.

{"compound": "c1csc(=Nc2ccc3c(c2)OCO3)s1 [Example 1]", "assigned.category": "Criterion not met"}
{"compound": "COC(=O)CNc1ccc2c(c1)OCO2 [Synthesis Example 2]", "assigned.category": "Criterion met"}
{"compound": "CC(C)OC(=O)C(C(=O)c1ccc2c(c1)OCO2)=C1SC=CS1 [Example 2]", "assigned.category": "Criterion not met"}
{"compound": "CC(C)OC(=O)C(=C1SC=CS1)c1ccc2c(c1)OCO2 [Example 3]", "assigned.category": "Criterion met"}
{"compound": "CSC(=S)Nc1ccc2c(c1)OCO2 [Synthesis Example 1]", "assigned.category": "Criterion met"}
